# Read-out: Monocyte Chemoattractant Protein-1 (MCP1), CCL2 (gene 6347)
# test: BSK_3C_MCP1: BioMAP Diversity Plus: 3C Assay for Monocyte Chemoattractant Protein-1 (MCP1) Biomarker Activity (AID 2283017)
# measurement setup: primary human endothelial cells (HUVEC); actives raise or lower the signal
Active and inactive are the calls of the source. The calls were made as follows: active = hit-call score of the fitted dose curve at least 0.9, where 1 is the maximum; inactive = score below 0.9.
Response enum: Y for active, N for inactive

Solved cases (2 shown):
• CCON=C(CC)C1=C(O)CC(c2c(C)cc(C)cc2C)CC1=O (stereo unspecified) = N
• CCCCNC(=O)n1c(NC(=O)OC)nc2ccccc21 = Y

Exam item: For `CC(C)Oc1cc(-n2nc(C(C)(C)C)oc2=O)c(Cl)cc1Cl` , what call appears in the results of this test?
Marked response: Y

Exam item: For OC(c1ccc(Cl)cc1)(c1cncnc1)c1ccccc1Cl (stereo unspecified) , what call appears in the results of this test?
Marked response: N

Exam item: For `COc1nc(C)nc(NC(=O)NS(=O)(=O)c2ccccc2CCC(F)(F)F)n1` , what call appears in the results of this test?
Marked response: N

Exam item: For CC(C)C1(C)N=C(c2nc3ccccc3cc2C(=O)O)NC1=O (stereo unspecified) , what call appears in the results of this test?
Marked response: N
